In this section we review reported refractive index values for a set of compounds.
# ASSAY EXPLANATION: refractive index (Na D-line) (dimensionless)
# COND: 298.15 K; 101.33 kPa; Liquid; Standard Abbe refractometry
Answer with the value's number alone.

compound=CCCCCCC val=1.3853

Summary for this compound, CCC(=O)OC [methyl propanoate] : refractive index is 1.3745

Summary for this compound, COC=O [methyl methanoate] : refractive index is 1.3412

Summary for this compound, CCCCC(=O)OC [methyl pentanoate] : refractive index is 1.3947

Summary for this compound, CCCC(=O)OC [methyl butanoate] : refractive index is 1.3852

Summary for this compound, COC(C)=O [methyl ethanoate] : refractive index is 1.3589

Recorded values, source the NIST ThermoML archive (doi:10.1021/je030117d).
